Provenance of the data: patent US10072035B2

# protocol-details: Concentration of compound 16c and 9c in liver after PO dosing of compound 27
# Type: in vivo, Wistar rats
# recorded-conditions: both sexes, Wistar, liver; 0.75 h after oral administration of compound 27 (39 mg/kg), rat
readout-kind: concentration at 0.75 h (ng/g)

I. O=P1(c2cnc3c(ccc4c(O)ccnc43)c2)OCC[C@@H](c2cccc(Cl)c2)O1 (some centres unmarked) [Compound 16c]
II. O=P(O)(O)c1cnc2c(ccc3c(O)ccnc32)c1
query: // which entry reports the smaller concentration at 0.75 h, I or II ? Your answer should be the label attached to the chosen record.
result: II
(II: 64.2 ng/g, I: 662 ng/g)
